method.summary: Displacement of [3H]BFI from imidazoline I2 receptor in Sprague-Dawley rat brain membranes after 45 mins by scintillation counting
Type: cell membranes, Membrane
Entries and their Ki values follow.
Your answer is read as nM, so omit the unit and give the number.

Cl.Cl.c1ccc2c(c1)ncn2CC1=NCCN1    6100
CCc1nc2cc(C)c(C)cc2n1CC1=NCCN1.Cl.Cl    81

Okay, now this molecule:
*Q* Form field: reported Ki of "Cc1nn(CC2=NCCN2)c2ccccc12.Cl.Cl"
*A* 359

Measured values drawn from ChEMBL document CHEMBL1926556 for this set.
